- TARGET: FLAG-tagged Vanin-1 (AA 22-493, T26I) (Homo sapiens, UniProt O95497, T26I)
- Construct: FLAG-tagged Vanin-1 (AA 22-493, T26I, produced internally); FLAG
- Sequence (O95497 22-493 T26I): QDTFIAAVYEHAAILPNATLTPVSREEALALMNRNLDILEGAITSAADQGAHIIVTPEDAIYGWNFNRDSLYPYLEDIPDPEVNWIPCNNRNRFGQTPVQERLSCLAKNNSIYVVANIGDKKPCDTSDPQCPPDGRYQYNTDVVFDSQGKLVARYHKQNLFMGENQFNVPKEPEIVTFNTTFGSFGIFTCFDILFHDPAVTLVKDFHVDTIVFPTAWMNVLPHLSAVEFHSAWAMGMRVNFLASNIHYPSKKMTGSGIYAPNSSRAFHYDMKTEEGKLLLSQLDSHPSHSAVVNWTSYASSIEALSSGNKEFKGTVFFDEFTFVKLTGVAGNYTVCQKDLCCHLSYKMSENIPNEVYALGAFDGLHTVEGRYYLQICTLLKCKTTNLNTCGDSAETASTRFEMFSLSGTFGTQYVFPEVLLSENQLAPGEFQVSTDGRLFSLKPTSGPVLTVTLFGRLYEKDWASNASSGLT
- PROTOCOL_SUMMARY: Vanin-1 enzymatic assay
- APPLIED_CONDITIONS: 0.1 nM Vanin-1, 3 μM D-pantethine, pantothenic acid formation by RapidFire MS; geometric mean if multiple measurements; read-out: VNN-1 IC50
pIC50: −log10 of the molar value.
Label 1 when pIC50 is at or above 9; otherwise label -1.

Query :: Hi, just wondering whether O=C(N[C@H]1CCN(C(=O)c2ccc(NC3(c4cncnc4)CC3)nc2)C1)C1CC1 [Example 8.13] shows pIC50 of 9 or higher.
Result :: -1

Query :: Check CC(=O)N(C)[C@H]1CCN(C(=O)c2ccc(NC(C)c3cccc(S(N)(=O)=O)c3)nc2)C1 (stereo partly shown) [Example 1.27] too.
Result :: 1

Query :: Request: CC(=O)N(C)[C@H]1CCN(C(=O)c2ccc(NCc3ccnn3C)nc2)C1 [Example 1.90]
Result :: -1

Query :: Moving on to the next compound: CN(C(=O)C1CC(F)(F)C1)[C@H]1CCN(C(=O)c2ccc(NC(C)(C)c3cccnc3)nc2)C1 [Example 8.2]
Result :: 1

Query :: And then CC(=O)N(C)[C@H]1CCN(C(=O)c2ccc(N[C@@H](C)c3ccc(C(F)(F)F)nc3)nc2)C1 [Example 9.1] , what is it?
Result :: 1

***
Query :: Reported pIC50 reaches at least 9 for CC(=O)N(C)[C@H]1CCN(C(=O)c2ccc(NC3CCc4ncccc43)nc2)C1 (single isomer, unassigned) [Example 8.8] ?
Result :: 1

Query :: And then CN(C(=O)C1(C)CCC1)[C@H]1CCN(C(=O)c2ccc(NCc3ccc(N)nc3)nc2)C1 [Example 1.31] , what is it?
Result :: 1

Query :: // next record CN(C(=O)C1CC1)[C@H]1CCN(C(=O)c2ccc(NC(C)(C)c3ccccc3)nc2)C1 [Example 2.1]
Result :: 1

Query :: Same question for CC(=O)N(C)[C@H]1CCN(C(=O)c2ccc(NC3(c4ccc(Cl)cc4)CCC3)nc2)C1 [Example 9.2] please.
Result :: 1

Query :: // next record CC(=O)N(C)[C@H]1CCN(C(=O)c2ccc(NC(C)(C)c3ccc(Cl)cc3)nc2)C1 [Example 4.7]
Result :: 1

Query :: Now consider Cc1ncccc1CNc1ccc(C(=O)N2CC[C@H](N(C)C(=O)C3(C)CCC3)C2)cn1 [Example 1.18] and answer again.
Result :: 1

Query :: Thanks! And O=C(c1ccc(NCc2cccnc2)nc1)N1CCC2(CCOCC2)C1 [Example 8.11] ?
Result :: 1

Query :: Entry CC(=O)N(C)[C@H]1CCN(C(=O)c2ccc(N[C@@H](C)c3ccc(F)cc3)nc2)C1 [Example 9.5] please
Result :: 1

Reference source: patent US12240828B2
